System: A549
PROCEDURE_DETAILS: Antiproliferative activity against human A549 cells assessed as cell growth inhibition measured after 48 hrs by CellTiter Aqueous One Solution MTS assay
Type: functional, cell-based
TEST_SETTINGS: A549, 48 h
# IC50 values compiled below

Cc1ccc(/C=C2\CCc3ccccc3C2=O)cc1: > 30 µM
O=C(/C=C/c1ccccc1)c1ccccc1: 12.2 µM
O=C(/C=C/c1ccc(O)cc1)c1ccccc1 [4-HYDROXYCHALCONE]: 26.6 µM
O=C1/C(=C/c2ccc(OC(F)(F)F)cc2)Cc2ccccc21: > 30 µM
COc1ccc(/C=C/C(=O)c2ccccc2)cc1: 5.2 µM
Cc1ccc(/C=C/C(=O)c2ccccc2)cc1: 16.8 µM

Prompt line: Look at this compound and give its reported IC50. COc1ccc(/C=C2\CCc3ccccc3C2=O)cc1
Response line: > 30 µM

Prompt line: Look at this compound and give its reported IC50. O=C(/C=C/c1ccc(OC(F)(F)F)cc1)c1ccccc1
Response line: 5.35 µM

Prompt line: Look at this compound and give its reported IC50. COc1ccc(/C=C2\Cc3ccccc3C2=O)cc1
Response line: > 30 µM

Prompt line: Look at this compound and give its reported IC50. O=C1/C(=C/c2ccc(F)cc2)Cc2ccccc21
Response line: > 30 µM

Prompt line: Look at this compound and give its reported IC50. O=C1/C(=C/c2ccccc2)Cc2ccccc21
Response line: > 30 µM

Origin of the recorded values: ChEMBL document CHEMBL5344420
